Raw MFI: recorded values
- Assayed System: T1, mouse IL-2Rγ endogenously expressed on MC/9 cells (mouse, UniProt P34902 23-369)
- T1 construct: whole, on cells
- T1 sequence (looked up): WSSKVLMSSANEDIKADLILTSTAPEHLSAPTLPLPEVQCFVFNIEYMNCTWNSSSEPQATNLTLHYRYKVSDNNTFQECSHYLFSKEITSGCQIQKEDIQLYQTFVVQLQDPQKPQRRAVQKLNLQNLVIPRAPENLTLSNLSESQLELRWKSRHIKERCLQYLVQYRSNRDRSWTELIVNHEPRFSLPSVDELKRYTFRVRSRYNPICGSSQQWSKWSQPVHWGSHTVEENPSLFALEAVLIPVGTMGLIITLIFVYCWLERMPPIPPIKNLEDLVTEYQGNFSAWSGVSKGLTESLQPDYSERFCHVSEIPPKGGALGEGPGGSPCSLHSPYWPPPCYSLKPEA
- Experiment: flow cytometry, 10 ug/ml antibody, MC/9 cells (endogenous mouse IL-2Rg)
Provide only the numeric value, understood in MFI.

| Binder | Endpoint | Numeric Readout |
| --- | --- | --- |
| H4H12899P (antibody, human IgG4 S228P, kappa, V domains shown, fully human anti-IL2Rg antibody, human IgG4) VH: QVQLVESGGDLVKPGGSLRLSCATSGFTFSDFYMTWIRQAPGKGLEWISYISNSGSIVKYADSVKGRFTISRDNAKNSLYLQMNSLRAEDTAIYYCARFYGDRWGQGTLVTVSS VL: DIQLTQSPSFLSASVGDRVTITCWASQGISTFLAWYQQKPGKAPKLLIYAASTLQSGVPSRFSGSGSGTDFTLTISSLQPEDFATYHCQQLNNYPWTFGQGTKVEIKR | Raw MFI | 167 |
| H4H12884P (antibody, human IgG4 S228P, kappa, V domains shown, fully human anti-IL2Rg antibody, human IgG4) VH: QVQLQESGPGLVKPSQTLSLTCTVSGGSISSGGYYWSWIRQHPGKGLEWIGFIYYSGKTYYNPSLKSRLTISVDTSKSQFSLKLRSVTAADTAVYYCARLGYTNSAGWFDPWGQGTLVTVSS VL: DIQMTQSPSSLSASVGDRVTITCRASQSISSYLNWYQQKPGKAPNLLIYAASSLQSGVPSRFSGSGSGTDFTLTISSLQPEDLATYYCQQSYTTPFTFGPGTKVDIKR | Raw MFI | 172 |

Moving on to the next binder.
Recorded Raw MFI for H4H12863P (antibody, human IgG4 S228P, kappa, V domains shown, fully human anti-IL2Rg antibody, human IgG4) VH: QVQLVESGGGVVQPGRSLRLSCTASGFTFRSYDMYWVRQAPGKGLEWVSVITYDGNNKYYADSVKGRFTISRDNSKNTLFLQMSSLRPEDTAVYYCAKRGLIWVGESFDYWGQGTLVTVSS VL: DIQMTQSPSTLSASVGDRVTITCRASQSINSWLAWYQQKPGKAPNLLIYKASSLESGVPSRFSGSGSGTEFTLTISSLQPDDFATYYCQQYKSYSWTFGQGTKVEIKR , please?
185
